- System: SK-MEL-5
- assay.method.text: NCI tumour cell line growth inhibition, 48 h
Active and inactive are the calls of the source. Rule as the data show it: active = GI50 up to about 1.1 µM and inactive = higher.
Entry note: the call must match one of Y = active, N = inactive

Below are worked cases with known answers.
# compound, qualitative.label
measured = [
    ("CN1CCN([C@H]2C[C@H]3[C@@H]4CC=C5C[C@@H](O)CC[C@]5(C)[C@H]4CC[C@]3(C)C2=O)CC1", "N"),
    ("COc1ccc(NC(=O)/C(CC2=Nc3ccc([N+](=O)[O-])cc3NC2O)=N\\NC(=O)C[N+](C)(C)C)c(OC)c1 (centres undefined)", "N"),
    ("COC(=O)[C@@H]1CC(C(CN)c2cn(C(=O)OC(C)(C)C)c3ccccc23)C(=O)N1C(=O)OC(C)(C)C (some centres undefined)", "N"),
    ("[O-][S+](Cc1ccccc1)c1nc2ccccc2nc1-c1cccs1 (centres undefined)", "N"),
    ("Cc1ccc(Nc2n[nH]c(=S)s2)cc1", "N"),
]

Kindly consider the entry below.
## Task Just curious, what result did O=S1(=O)c2ccccc2NC(=S)N1c1ccccc1 get here?
## Result N
